Reference source for all entries: the EternaBench riboswitch data

- Tested on: MS2 coat protein
- test.summary: apparent Kd, MS2 coat protein; higher = weaker binding; RNA-MaP array; FMN 200 µM where present
- experimental.parameters: ligand present: flavin mononucleotide; designed as: ON switch for flavin mononucleotide
Label 1 (yes) when apparent Kd is at or above 50 nM; anything below gets 0 (no).

Check out these entries, answers already filled in.
GCGUAAUAGGUGUAGCUAGUCGUGCAAGAAGGGUGGUGAACAUGAGGAUCACCCAUGUGGUCAGUACAGGAUAUUGCUAUACGA ... 1 (yes)
CUACCUUAUGAGAAGGCGGUCAUGAAACAUGAUCGAGGAUAUCAUGUAAACAUGAGGAUCACCCAUGUAUGGGUAUUAUGGUAA ... 0 (no)
GGCUUGCAGCUAGGAUAUGGGCGAUCACAUGAGGAUCACCCAUGUCAACAUCAAAACAAGAUUAACCAGAAGGAGCCGCGGGUC ... 1 (yes)

Record "UUCAGGGAUCAAGGAUAUCUAUAUUCAUGAGGACAUGAGGAUCACCCAUGUUGAUUACCCAUGAGGGAGAAGGUGAACAUGAGG" ; criterion: apparent Kd no lower than 50 nM. Met?
0 (no)

Record "GUACUACAUGAGGAUCACCCAUGUACAAAGGUACGAGGAUAUGCAUGUACGAAAGUAUAUGCAGAAGGCGUAGUAC" ; criterion: apparent Kd no lower than 50 nM. Met?
0 (no)

Record "AUGGACGUCGUAGGAUAUGUAGGAUUCUCGUACAUGAGGAUCACCCAUGUUGACGUCGAGGACGGACAGAAGGGCGGUGUCCAU" ; criterion: apparent Kd no lower than 50 nM. Met?
0 (no)

Record "GGAUGAGCGAUAGGAUAUGCUGGGAUUGAAUGGGUAGAAGGAUUUCUAGUGGGAAAGACAUGAGGAUCACCCAUGUCGCGGACC" ; criterion: apparent Kd no lower than 50 nM. Met?
0 (no)

Record "CUGGUUGUCGUAGGAUAUGUAGGAUAUUCCUACAUGAGGAUCACCCAUGUUCGCAUGGAAGAAGGACAGAAGGACGAUGACCAG" ; criterion: apparent Kd no lower than 50 nM. Met?
0 (no)

Record "UGCCGCAACAACGCGGCGUCACAUGAGGAUCACCCAUGUUCACAGGAUAUGCGAUAGCCAACGAAGCAGAAGGGUGAUUACUUA" ; criterion: apparent Kd no lower than 50 nM. Met?
1 (yes)

Record "GGAGACCUCACAGGAUAUGCUGGACUUUGUCCAGCAGAAGGGUGGAAACAUGAGGAUCACCCAUGUAUGGUCUCCAAAUUUAAU" ; criterion: apparent Kd no lower than 50 nM. Met?
0 (no)

Record "GUAGCUAUCGGAGGAUAUUCAUACCGGAAACGGACAUGAGGAUCACCCAUGUGGCGAAAGCCAUGGGAGAAGGCCGAUAGCUAC" ; criterion: apparent Kd no lower than 50 nM. Met?
1 (yes)

Record "GGUCGUCACAUUUACAUGAGGAUCACCCAUGUCGAAAGACAUGAGGAUAUGCAUCCUAAUUGGAUGCAGAAGGCAUGGACGACC" ; criterion: apparent Kd no lower than 50 nM. Met?
1 (yes)
